- System: HUVECs
- ASSAY: MTT cell viability / cytotoxicity assay, HUVECs
- Assay type: cell-based
- CONDITION CONTEXT: Homo sapiens, HUVEC, 72 h cytotoxicity, MTT; Activated Dox: cells pre-incubated with 500 μM 2 for 6 h, then TCO-Dox 72 h; read-out: EC50, HUVECs
EXPERIMENTAL ENDPOINT: EC50 (nM)
Quick reminder: number only, in nM, skip the unit.

Param item = COc1cccc2c1C(=O)c1c(O)c3c(c(O)c1C2=O)C[C@@](O)(C(=O)CO)C[C@@H]3O[C@H]1C[C@H](N)[C@H](O)[C@H](C)O1 [Dox, doxorubicin, reference compound] ; retrieve measured EC50. 133

====

- ASSAY: MTT cell viability / cytotoxicity assay, HeLa cells
- Type: cell-based
- CONDITION CONTEXT: human; 500 μM 2, 24 h, MTT
- Procedure: Cells were plated in flat-bottom 96-well plates at a density of 3 × 10^3 cells per well. After 12 h of cell attachment, the cell culture medium was replaced with 100 μL of pre-warmed media containing the compounds at different concentrations. After 24–72 h of incubation, cell proliferation was assessed by the MTT assay. […] The formazan crystals that formed were dissolved in 110 μL of DMSO, and the absorbance was subsequently measured with a plate reader (Perkin Elmer) at 490 nm. […]
EXPERIMENTAL ENDPOINT: viability at 24 h, 500 μM

Param item = Cc1nnc(-c2ccc(CC(=O)NCCCCC(NC(=O)Cc3ccc4ccccc4c3)C(=O)NC(Cc3ccc(OP(=O)(O)O)cc3)C(=O)NC(Cc3ccccc3)C(=O)O)cc2)nn1 (stereo not shown) ; retrieve measured viability at 24 h, 500 μM. > 85%

====

- Tested on: CCC-HEH-2 cells
- ASSAY: MTT cell viability / cytotoxicity assay, CCC-HEH-2 cells
- Type: cell-based
- CONDITION CONTEXT: Homo sapiens; 72 h cytotoxicity, MTT; Activated Dox: cells pre-incubated with 500 μM 2 for 6 h, then TCO-Dox 72 h; read-out: EC50, CCC-HEH-2
EXPERIMENTAL ENDPOINT: pEC50
The quantity pEC50 is defined as the negative base-10 logarithm of the molar concentration.

Param item = COc1cccc2c1C(=O)c1c(O)c3c(c(O)c1C2=O)C[C@@](O)(C(=O)CO)C[C@@H]3O[C@H]1C[C@H](N)[C@H](O)[C@H](C)O1 [Dox, doxorubicin, reference compound] ; retrieve measured pEC50. 7.08

====

- System: HeLa cells
- ASSAY: MTT cell viability / cytotoxicity assay, HeLa cells
- Assay type: cell-based
- CONDITION CONTEXT: Homo sapiens, HeLa, 72 h cytotoxicity, MTT; Activated Dox: cells pre-incubated with 500 μM 2 for 6 h, then TCO-Dox 72 h; read-out: EC50, HeLa
EXPERIMENTAL ENDPOINT: EC50 (nM)
Quick reminder: number only, in nM, skip the unit.

Param item = COc1cccc2c1C(=O)c1c(O)c3c(c(O)c1C2=O)C[C@@](O)(C(=O)CO)C[C@@H]3O[C@H]1C[C@H](N)[C@H](O)[C@H](C)O1 [Dox, doxorubicin, reference compound] ; retrieve measured EC50. 732

====

- Test system: Saos-2 cells
- ASSAY: MTT cell viability / cytotoxicity assay, Saos-2 cells
- Assay type: cell-based
- CONDITION CONTEXT: Homo sapiens, SAOS-2, read-out: EC50, Saos-2
EXPERIMENTAL ENDPOINT: EC50 (µM)
Quick reminder: number only, in µM, skip the unit.

Param item = COc1cccc2c1C(=O)c1c(O)c3c(c(O)c1C2=O)CC(O)(C(=O)CO)CC3OC1CC(NC(=O)OC2C=CCCCCC2)C(O)C(C)O1 (stereo not shown) [TCO-Dox] ; retrieve measured EC50. 7.57

====

- Tested on: HUVECs
- ASSAY: MTT cell viability / cytotoxicity assay, HUVECs
- Assay type: cell-based
- CONDITION CONTEXT: Homo sapiens, HUVEC, read-out: EC50 against HUVECs, cells pre-incubated with 500 μM 2 for 6 h, then TCO-Dox 72 h
EXPERIMENTAL ENDPOINT: EC50 (nM)
Quick reminder: number only, in nM, skip the unit.

Param item = COc1cccc2c1C(=O)c1c(O)c3c(c(O)c1C2=O)CC(O)(C(=O)CO)CC3OC1CC(NC(=O)OC2C=CCCCCC2)C(O)C(C)O1 (stereo not shown) ; retrieve measured EC50. 272

====

- System: HUVECs
- ASSAY: MTT cell viability / cytotoxicity assay, HUVECs
- Type: cell-based
- CONDITION CONTEXT: Homo sapiens, HUVEC, read-out: EC50 against HUVECs, cells pre-incubated with 300 μM 2 for 6 h, then TCO-Dox 72 h
EXPERIMENTAL ENDPOINT: EC50
State the result as a value with its unit after it.

Param item = COc1cccc2c1C(=O)c1c(O)c3c(c(O)c1C2=O)CC(O)(C(=O)CO)CC3OC1CC(NC(=O)OC2C=CCCCCC2)C(O)C(C)O1 (stereo not shown) ; retrieve measured EC50. 0.367 µM

====

- Test system: HeLa cells
- ASSAY: MTT cell viability / cytotoxicity assay, HeLa cells
- Format: cell-based
- CONDITION CONTEXT: Homo sapiens, HeLa, read-out: EC50, HeLa, 72 h cytotoxicity, MTT; Activated Dox: cells pre-incubated with 500 μM 2 for 6 h, then TCO-Dox 72 h
EXPERIMENTAL ENDPOINT: pEC50
The quantity pEC50 is defined as the negative base-10 logarithm of the molar concentration.

Param item = COc1cccc2c1C(=O)c1c(O)c3c(c(O)c1C2=O)CC(O)(C(=O)CO)CC3OC1CC(NC(=O)OC2C=CCCCCC2)C(O)C(C)O1 (stereo not shown) [TCO-Dox] ; retrieve measured pEC50. 5.17

====

- ASSAY: MTT cell viability / cytotoxicity assay, HUVECs
- Type: cell-based
- CONDITION CONTEXT: human; 500 μM 2, 24 h, MTT
EXPERIMENTAL ENDPOINT: viability at 24 h, 500 μM

Param item = Cc1nnc(-c2ccc(CC(=O)NCCCCC(NC(=O)Cc3ccc4ccccc4c3)C(=O)NC(Cc3ccc(OP(=O)(O)O)cc3)C(=O)NC(Cc3ccccc3)C(=O)O)cc2)nn1 (stereo not shown) ; retrieve measured viability at 24 h, 500 μM. > 85%

These data points were gathered from paper PMC6261997.
